# assay system: T1, huIL-17RA-FLAG-polyHis (human, UniProt Q96F46 33-320)
# T1 construct: also called IL-17RA-FLAG-pHis; wild-type IL-17RA
# test description: binning; IL-17RA held by bead mAb Q
readout kind: normalized MFI
Just the number, please, no unit after it.

In: Specify reported normalized MFI for the binder shown: AMH10/AML10 (antibody, IgG2, V domains shown, human mAb from IgG2 XenoMouse mice; also called AM-10; antibody F) VH: QVQLQESGPGLVKPSQTLSLTCTVSGGSISSGGYYWSWIRQHPGKGLEWIGYIYFSGSAYYNPSLKSRVAISVDTSKNQFSLKLSSVTAADTAVYYCAREYYDSSGYPDAFDIWGQGTMVTVSS VL: DIQMTQSPSSVSASVGDRVTITCRASQGIRSWLAWYQQKPGKAPKLLIFAASSLQSGVPSRFSGSGSGTEFTLTISSLQPEDFATYYCQQANNFPRTFGQGTKVEIK
Out: 1650

Source listed as patent US20120251547A1.
